Values compiled from ChEMBL document CHEMBL4811322.

Catalogue of IC50 readings, one per entry.
# test_system: Geranylgeranyl pyrophosphate synthase (Homo sapiens)
# procedure_details: Inhibition of recombinant GGDPS (unknown origin) using FPP and [14C] IPP as substrate preincubated for 10 mins followed by substrate addition measured after 30 mins by liquid scintillation counting method
measure: IC50

- CCC(Cc1cn(C/C=C(\C)CCC=C(C)C)nn1)(P(=O)(O)O)P(=O)(O)O: 5900 nM
- CC(C)=CCC/C(C)=C/Cn1cc(C2CC2(P(=O)(O)O)P(=O)(O)O)nn1 (stereo not drawn): 1600 nM
- CC(C)=CCC/C(C)=C/Cn1cc(CC(CN)(P(=O)(O)O)P(=O)(O)O)nn1: 2000 nM

----------
# test_system: Geranylgeranyl pyrophosphate synthase (Homo sapiens, UniProt O95749)
# procedure_details: Inhibition of recombinant GGDPS (unknown origin) using FPP and [14C] IPP as substrate preincubated for 10 mins followed by substrate addition measured after 30 mins by liquid scintillation counting method
Catalogue of IC50 readings, one per entry.
measure: IC50 (µM)

• CC(C)=CCC/C(C)=C/Cn1cc(CC(F)(P(=O)(O)O)P(=O)(O)O)nn1 = 3
• CC(C)=CCC/C(C)=C/Cn1cc(C=C(P(=O)(O)O)P(=O)(O)O)nn1 = 2.7
• CC(C)=CCC/C(C)=C/Cn1cc(CC(C)(P(=O)(O)O)P(=O)(O)O)nn1 = 1.3

----------
# test_system: Geranylgeranyl pyrophosphate synthase (Homo sapiens)
# Sequence (whole entry): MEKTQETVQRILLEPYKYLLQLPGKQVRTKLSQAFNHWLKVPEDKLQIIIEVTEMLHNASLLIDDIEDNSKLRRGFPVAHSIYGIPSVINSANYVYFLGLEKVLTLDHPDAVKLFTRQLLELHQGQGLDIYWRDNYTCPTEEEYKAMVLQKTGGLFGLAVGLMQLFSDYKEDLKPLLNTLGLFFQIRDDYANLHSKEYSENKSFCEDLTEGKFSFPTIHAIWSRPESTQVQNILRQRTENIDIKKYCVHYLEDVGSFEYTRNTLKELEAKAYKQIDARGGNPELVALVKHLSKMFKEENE
# procedure_details: Inhibition of GGDPS in human RPMI-8226 cells assessed as lowest effective concentration required to show unmodified Rap1a band after 48 hrs by immunoblot analysis
# Assay type: cell-based
measure: LED

* CC(C)=CCC/C(C)=C/Cn1cc(CC(O)(P(=O)(O)O)P(=O)(O)O)nn1 | 0.1 µM
* CC(C)=CCC/C(C)=C/Cn1cc(CC(C)(P(=O)(O)O)P(=O)(O)O)nn1 | 0.1 µM
* CC(C)=CCC/C(C)=C/Cn1cc(C2CC2(P(=O)(O)O)P(=O)(O)O)nn1 (stereo not drawn) | 0.5 µM
* CC(C)=CCC/C(C)=C/Cn1cc(CC(P(=O)(O)O)P(=O)(O)O)nn1 | 0.5 µM
* CC(C)=CCC/C(C)=C/Cn1cc(CC(F)(P(=O)(O)O)P(=O)(O)O)nn1 | 0.25 µM
* CC(C)=CCC/C(C)=C/Cn1cc(C=C(P(=O)(O)O)P(=O)(O)O)nn1 | 0.25 µM
* CCC(Cc1cn(C/C=C(\C)CCC=C(C)C)nn1)(P(=O)(O)O)P(=O)(O)O | 2.5 µM
* CC(C)=CCC/C(C)=C/Cn1cc(CC(CN)(P(=O)(O)O)P(=O)(O)O)nn1 | 0.5 µM
